- TESTED TARGET: p38α MAPK (Homo sapiens, UniProt Q16539)
- Sequence (Q16539 whole entry): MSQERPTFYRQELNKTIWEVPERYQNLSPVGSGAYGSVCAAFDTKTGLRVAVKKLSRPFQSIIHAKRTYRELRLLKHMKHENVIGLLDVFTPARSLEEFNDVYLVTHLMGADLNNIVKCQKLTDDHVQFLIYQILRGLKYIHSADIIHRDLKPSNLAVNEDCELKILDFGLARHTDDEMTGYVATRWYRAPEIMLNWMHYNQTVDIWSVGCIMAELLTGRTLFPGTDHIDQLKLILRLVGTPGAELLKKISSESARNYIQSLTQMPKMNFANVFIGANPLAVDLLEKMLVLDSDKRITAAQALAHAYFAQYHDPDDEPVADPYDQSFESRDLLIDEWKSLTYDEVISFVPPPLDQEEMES
- EXPERIMENT SUMMARY: p38α MAPK enzyme-linked immunosorbent assay
- Assay type: biochemical
- PARTICULARS: read-out: Percent inhibition of p38α MAPK at indicated concentration
QUANTITY: inhibition at 10 µM (%)
Return type: number; implicit unit %.

Completed entries (count: 5):
CSc1nc(C)c(-c2ccnc(NC3CCCC3)c2)[nH]1 [Compound 48d]: 47
CSc1nc(C)c(-c2ccnc(N[C@H]3CC[C@H](NC(C)=O)CC3)c2)[nH]1 [Compound 48i]: 37
CSc1nc(C)c(-c2ccnc(NC3CCOCC3)c2)[nH]1 [Compound 48f]: 27
CSc1nc(C)c(-c2ccnc(Nc3ccc(N4CCOCC4)cc3)c2)[nH]1: 48
CSc1nc(C)c(-c2ccnc(N[C@H]3CC[C@H](O)CC3)c2)[nH]1 [Compound 48g]: 35

Consider the record given below.
Complete the entry with inhibition at 10 µM for CSc1nc(C)c(-c2ccnc(N[C@H]3CC[C@H](NC(=O)C4CCCCC4)CC3)c2)[nH]1 [Compound 48k]
10

---

- TESTED TARGET: JNK3 (Homo sapiens)
- Sequence (P53779 whole entry): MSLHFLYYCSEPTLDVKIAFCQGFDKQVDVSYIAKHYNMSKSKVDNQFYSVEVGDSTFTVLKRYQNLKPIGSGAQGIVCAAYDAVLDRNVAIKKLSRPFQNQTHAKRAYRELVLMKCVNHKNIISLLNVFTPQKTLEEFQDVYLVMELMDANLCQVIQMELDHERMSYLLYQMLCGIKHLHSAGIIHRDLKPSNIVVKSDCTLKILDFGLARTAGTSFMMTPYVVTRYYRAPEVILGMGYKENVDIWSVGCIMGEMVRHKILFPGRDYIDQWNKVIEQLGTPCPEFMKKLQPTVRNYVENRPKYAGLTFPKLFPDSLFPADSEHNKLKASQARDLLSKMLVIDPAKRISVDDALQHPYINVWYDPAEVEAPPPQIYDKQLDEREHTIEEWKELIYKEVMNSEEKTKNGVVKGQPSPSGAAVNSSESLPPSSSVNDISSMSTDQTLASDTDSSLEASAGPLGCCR
- EXPERIMENT SUMMARY: JNK3 enzyme-linked immunosorbent assay
- Assay type: biochemical
QUANTITY: pIC50
Just so you know, pIC50 here is -log10 of the concentration in molar units; reply with that number alone.

c1ccc2cc(-c3nc[nH]c3-c3ccnc(Nc4ccc(N5CCOCC5)cc4)c3)ccc2c1 [Compound 18e]: 7.51

Complete the entry with pIC50 for CSc1nc(-c2ccc(F)cc2)c(-c2ccnc(Nc3ccc(N4CCOCC4)cc3)c2)[nH]1
7.42

---

- TESTED TARGET: JNK3 (Homo sapiens)
- EXPERIMENT SUMMARY: JNK3 enzyme-linked immunosorbent assay
- Assay type: biochemical
# pIC50 per record follows
Just so you know, pIC50 here is -log10 of the concentration in molar units; reply with that number alone.

Completed entries (count: 3):
Cn1cncc1-c1ccnc(Nc2ccc(N3CCOCC3)cc2)c1: 6.15
Cn1cc(-c2nc[nH]c2-c2ccnc(Nc3ccc(N4CCOCC4)cc3)c2)cn1 [Compound 18f]: 6.12
CSc1nc(C)c(-c2ccnc(NC3CCC3)c2)[nH]1 [Compound 48c]: 5.52

Consider the record given below.
Complete the entry with pIC50 for CSc1nc(C)c(-c2ccnc(Nc3ccc(NC(C)=O)cc3)c2)[nH]1 [Compound 48n]
6.38

---

Quick record of pIC50 values for p38α MAPK (Homo sapiens).
Just so you know, pIC50 here is -log10 of the concentration in molar units; reply with that number alone.

c1ccc(-c2nc[nH]c2-c2ccnc(Nc3ccc(N4CCOCC4)cc3)c2)cc1 [Compound 18a]: 7.62

Complete the entry with pIC50 for CCc1nc(-c2ccc(F)cc2)c(-c2ccnc(Nc3ccc(N4CCOCC4)cc3)c2)[nH]1
8.05

Complete the entry with pIC50 for Fc1ccc(-n2cncc2-c2ccnc(Nc3ccc(N4CCOCC4)cc3)c2)cc1
6.49

Complete the entry with pIC50 for FC(F)(F)c1cccc(-c2nc[nH]c2-c2ccnc(Nc3ccc(N4CCOCC4)cc3)c2)c1 [Compound 18d]
7.66

Complete the entry with pIC50 for c1ccc2cc(-c3nc[nH]c3-c3ccnc(Nc4ccc(N5CCOCC5)cc4)c3)ccc2c1 [Compound 18e]
7.80

Complete the entry with pIC50 for Clc1ccccc1-c1nc[nH]c1-c1ccnc(Nc2ccc(N3CCOCC3)cc2)c1 [Compound 18b]
7.42

Complete the entry with pIC50 for c1cc(-c2[nH]cnc2C2CCCC2)cc(Nc2ccc(N3CCOCC3)cc2)n1 [Compound 18h]
5.77

Complete the entry with pIC50 for CSc1nc(C)c(-c2ccnc(NC(C)c3ccccc3)c2)[nH]1 (stereo not shown) [Compound 48b]
5.46

Complete the entry with pIC50 for CNc1nc(-c2ccc(F)cc2)c(-c2ccnc(Nc3ccc(N4CCOCC4)cc3)c2)s1
8.70

---

# inhibition at 10 µM per record follows
- TESTED TARGET: p38α MAPK (Homo sapiens, UniProt Q16539)
- EXPERIMENT SUMMARY: p38α MAPK enzyme-linked immunosorbent assay
- Assay type: biochemical
- PARTICULARS: read-out: Percent inhibition of p38α MAPK at indicated concentration
Return type: number; implicit unit %.

Completed entries (count: 4):
CSc1nc(C)c(-c2ccnc(Nc3ccc(NC(C)=O)cc3)c2)[nH]1 [Compound 48n]: 32
CSc1nc(C)c(-c2ccnc(Nc3ccc(NC(=O)c4ccccc4)cc3)c2)[nH]1 [Compound 48o]: 33
CSc1nc(C)c(-c2ccnc(Nc3ccc(N4CCOCC4)cc3)c2)n1C1CC1: 40
CSc1nc(C)c(-c2ccnc(Nc3ccc(N4CCOCC4)cc3)c2)n1C: 10

Complete the entry with inhibition at 10 µM for CSc1nc(-c2ccnc(Nc3ccc(N4CCOCC4)cc3)c2)c(C)n1C
37

Complete the entry with inhibition at 10 µM for CSc1ncc(-c2ccnc(Nc3ccc(N4CCOCC4)cc3)c2)[nH]1
43

---

- TESTED TARGET: JNK3 (Homo sapiens)
- EXPERIMENT SUMMARY: JNK3 enzyme-linked immunosorbent assay
- Format: biochemical
QUANTITY: IC50 (nM)
Return type: number; implicit unit nM.

Quote IC50 with test system JNK3 (Homo sapiens) for CC(C)c1nc[nH]c1-c1ccnc(Nc2ccc(N3CCOCC3)cc2)c1 [Compound 18l]
2830

---

- TESTED TARGET: p38α MAPK (Homo sapiens)
- EXPERIMENT SUMMARY: p38α MAPK enzyme-linked immunosorbent assay
- Format: biochemical
- PARTICULARS: read-out: Percent inhibition of p38α MAPK at indicated concentration
QUANTITY: inhibition at 10 µM (%)
Return type: number; implicit unit %.

CSc1nc(C)c(-c2ccnc(N[C@H]3CC[C@H](NC(=O)c4ccccc4)CC3)c2)[nH]1 [Compound 48j]: 12

Complete the entry with inhibition at 10 µM for CSc1nc(C)c(-c2ccnc(Nc3ccc(N)cc3)c2)[nH]1 [Compound 48m]
38

Complete the entry with inhibition at 10 µM for CSc1nc(C)c(-c2ccnc(NC3CCCCC3)c2)[nH]1 [Compound 48e]
31

---

- TESTED TARGET: UniProt P53779
- EXPERIMENT SUMMARY: JNK3 enzyme-linked immunosorbent assay
- Assay type: biochemical
QUANTITY: IC50 (nM)
Return type: number; implicit unit nM.

Clc1ccccc1-c1nc[nH]c1-c1ccnc(Nc2ccc(N3CCOCC3)cc2)c1 [Compound 18b]: 60
CNc1nc(-c2ccnc(Nc3ccc(N4CCOCC4)cc3)c2)c(C)s1: 2500
CCn1c(SC)nc(C)c1-c1ccnc(Nc2ccc(N3CCOCC3)cc2)c1: 2090
CSc1nc(C)c(-c2ccnc(Nc3ccc(N4CCOCC4)cc3)c2)n1C: 2510
CSc1ncc(-c2ccnc(Nc3ccc(N4CCOCC4)cc3)c2)[nH]1: 562
CSc1nc(C)c(-c2ccnc(Nc3ccc(N)cc3)c2)[nH]1 [Compound 48m]: 353

Complete the entry with IC50 for CSc1nc(C)c(-c2ccnc(N[C@H]3CC[C@H](NC(C)=O)CC3)c2)[nH]1 [Compound 48i]
819

Complete the entry with IC50 for Brc1ccccc1-c1nc[nH]c1-c1ccnc(Nc2ccc(N3CCOCC3)cc2)c1 [Compound 18c]
131

Complete the entry with IC50 for c1cc(-c2[nH]cnc2C2CC2)cc(Nc2ccc(N3CCOCC3)cc2)n1 [Compound 18j]
1080

Complete the entry with IC50 for CSc1nc(C)c(-c2ccnc(Nc3ccc(N4CCOCC4)cc3)c2)n1C1CC1
6510

Complete the entry with IC50 for CSc1nc(C)c(-c2ccnc(Nc3ccc(NC(=O)C(C)(C)C)cc3)c2)[nH]1 [Compound 48q]
2370
